Measured values drawn from the supplement of paper PMC11246515 for this set.

Here, each record is paired with measured total protein half-life in vivo data.
assay: total protein half-life in vivo (active degradation + dilution); higher = more stable protein
condition-info: E. coli NCM3722 delta-clpP delta-lon delta-hslV; growth: N-lim chemostat; doubling time 6 h
Numeric answer only, unit h assumed.

Some sequences with recorded total protein half-life in vivo:
monomer-sequence	unit-string	total protein half-life in vivo
MQERHTEQDYRALLIADTPIIDVRAPIEFEHGAMPAAINLPLMNNDERAAVGTCYKQQGSDAALALGHKLVAGEIRQQRMDAWRAACLQNPQGILCCARGGQRSHIVQSWLHAAGIDYPLVEGGYKALRQTAIQATIELAQKPIVLIGGCTGSGKTLLVQQQPNGVDLEGLARHRGSAFGRTLQPQLSQASFENLLAAEMLKTDARQNLRLWVLEDESRMIGSNHLPECLRERMTQAAIAVVEDPFEIRLERLNEEYFLRMHHDFTHAYGDEQGWQEYCEYLHHGLSAIKRRLGLQRYNELAARLDAALTTQLTTGSTDGHLAWLVPLLEEYYDPMYRYQLEKKAEKVVFRGEWAEVAEWVKAR	h	4.83
MQKVVLATGNVGKVRELASLLSDFGLDIVAQTDLGVDSAEETGLTFIENAILKARHAAKVTALPAIADDSGLAVDVLGGAPGIYSARYSGEDATDQKNLQKLLETMKDVPDDQRQARFHCVLVYLRHAEDPTPLVCHGSWPGVITREPAGTGGFGYDPIFFVPSEGKTAAELTREEKSAISHRGQALKLLLDALRNG	h	4.93
MTIYFINWVADYELKMIQYLKKKYKIKNITTPKKYNWINKKISKIGMDNAWLGRLFIKHYLNDIKKDDIIIINDSVVNKGINKQILKNINCHKVLLLRNTVGEDFILDNANYFDIIYDFEHRFIGNEKIKAIEQFFPIGMDEIRNYSLSDKNNSQPICFFLGRDKGRLQIINELAERLTTLGCKLDFNVVKDKTSSTTSKYLIEKQISYEENIRRTLNANIIVDITKENQSGWTLRILEALFFNKKLITNNINVFGSEIYSESRFFIIGHDDWDKLEYFINSSVKPMDYDSLYKFSPDKMMSTIVSDFIDK	h	7.07

// moving on: another record for total protein half-life in vivo
Lookup result for MSNQFGDTRIDDDLTLLSETLEEVLRSSGDPADQKYVELKARAEKALDDVKKRVSQASDSYYYRAKQAVYRADDYVHEKPWQGIGVGAAVGLVLGLLLARR [P0AEH5] ; measured total protein half-life in vivo: 6.42

###

assay: total protein half-life in vivo (active degradation + dilution); higher = more stable protein
condition-info: wild type E. coli NCM3722; growth: P-lim chemostat; doubling time 12 h
readout-type: total protein half-life in vivo (h)
Numeric answer only, unit h assumed.

Some sequences with recorded total protein half-life in vivo:
MRILLIEDDMLIGDGIKTGLSKMGFSVDWFTQGRQGKEALYSAPYDAVILDLTLPGMDGRDILREWREKGQREPVLILTARDALAERVEGLRLGADDYLCKPFALIEVAARLEALMRRTNGQASNELRHGNVMLDPGKRIATLAGEPLTLKPKEFALLELLMRNAGRVLSRKLIEEKLYTWDEEVTSNAVEVHVHHLRRKLGSDFIRTVHGIGYTLGEK 11
MKKSTLALVVMGIVASASVQAAEIYNKDGNKLDVYGKVKAMHYMSDNASKDGDQSYIRFGFKGETQINDQLTGYGRWEAEFAGNKAESDTAQQKTRLAFAGLKYKDLGSFDYGRNLGALYDVEAWTDMFPEFGGDSSAQTDNFMTKRASGLATYRNTDFFGVIDGLNLTLQYQGKNENRDVKKQNGDGFGTSLTYDFGGSDFAISGAYTNSDRTNEQNLQSRGTGKRAEAWATGLKYDANNIYLATFYSETRKMTPITGGFANKTQNFEAVAQYQFDFGLRPSLGYVLSKGKDIEGIGDEDLVNYIDVGATYYFNKNMSAFVDYKINQLDSDNKLNINNDDIVAVGMTYQF 13.9

Lookup result for MKKLITANDIREAHARGEQAMSVVLRASIITPEAREVADLLGFTITECDESIPVTASVPASVPADKTESQRIRETIIAQLPEGQFTESLVAQLMEKVMKEKQSLEQGAMQPSFKSVTGKGGIKVIDGSSVKFGRFDGAEPHCVGLTDLVTGDDGSSMAAGFMQWENAFFPWTLNYDEIDMVLEGELHVRHEGQTMIAKAGDVMFIPKGSSIEFGTTSSVKFLYVAWPANWQSL ; measured total protein half-life in vivo: 3.93

###

assay: total protein half-life in vivo (active degradation + dilution); higher = more stable protein
condition-info: wild type E. coli NCM3722; growth: C-lim chemostat; doubling time 12 h
Here, each record is paired with measured total protein half-life in vivo data.
Numeric answer only, unit h assumed.

Some sequences with recorded total protein half-life in vivo:
monomer-sequence	total protein half-life in vivo [h]
MTQPLFLIGPRGCGKTTVGMALADSLNRRFVDTDQWLQSQLNMTVAEIVEREEWAGFRARETAALEAVTAPSTVIATGGGIILTEFNRHFMQNNGIVVYLCAPVSVLVNRLQAAPEEDLRPTLTGKPLSEEVQEVLEERDALYREVAHIIIDATNEPSQVISEIRSALAQTINC [P0A6E1]	7.3
MKKSTLALVVMGIVASASVQAAEIYNKDGNKLDVYGKVKAMHYMSDNASKDGDQSYIRFGFKGETQINDQLTGYGRWEAEFAGNKAESDTAQQKTRLAFAGLKYKDLGSFDYGRNLGALYDVEAWTDMFPEFGGDSSAQTDNFMTKRASGLATYRNTDFFGVIDGLNLTLQYQGKNENRDVKKQNGDGFGTSLTYDFGGSDFAISGAYTNSDRTNEQNLQSRGTGKRAEAWATGLKYDANNIYLATFYSETRKMTPITGGFANKTQNFEAVAQYQFDFGLRPSLGYVLSKGKDIEGIGDEDLVNYIDVGATYYFNKNMSAFVDYKINQLDSDNKLNINNDDIVAVGMTYQF	12.6
MKLDEIARLAGVSRTTASYVINGKAKQYRVSDKTVEKVMAVVREHNYHPNAVAAGLRAGRTRSIGLVIPDLENTSYTRIANYLERQARQRGYQLLIACSEDQPDNEMRCIEHLLQRQVDAIIVSTSLPPEHPFYQRWANDPFPIVALDRALDREHFTSVVGADQDDAEMLAEELRKFPAETVLYLGALPELSVSFLREQGFRTAWKDDPREVHFLYANSYEREAAAQLFEKWLETHPMPQALFTTSFALLQGVMDVTLRRDGKLPSDLAIATFGDNELLDFLQCPVLAVAQRHRDVAERVLEIVLASLDEPRKPKPGLTRIKRNLYRRGVLSRS [P0ACP1]	9.99
MSAQKPGLHPRNRHHSRYDLATLCQVNPELRQFLTLTPAGEQSVDFANPLAVKALNKALLAHFYAVANWDIPDGFLCPPVPGRADYIHHLADLLAEASGTIPANASILDIGVGANCIYPLIGVHEYGWRFTGSETSSQALSSAQAIISSNPGLNRAIRLRRQKESGAIFNGIIHKNEQYDATLCNPPFHDSAAAARAGSERKRRNLGLNKDDALNFGGQQQELWCEGGEVTFIKKMIEESKGFAKQVMWFTSLVSRGENLPPLYRALTDVGAVKVVKKEMAQGQKQSRFIAWTFMNDEQRRRFVNRQR	13.2
MSAQVSLELHHRISQFLFHEASLLDDWKFRDWLAQLDEEIRYTMRTTVNAQTRDRRKGVQPPTTWIFNDTKDQLERRIARLETGMAWAEEPPSRTRHLISNCQISETDIPNVFAVRVNYLLYRAQKERDETFYVGTRFDKVRRLEDDNWRLLERDIVLDQAVITSHNLSVLF	8.73

Lookup result for MKKTAAIISACMLTFALSACSGSNYVMHTNDGRTIVSDGKPQTDNDTGMISYKDANGNKQQINRTDVKEMVELDQ ; measured total protein half-life in vivo: 10.3

Lookup result for MKKVAIVGLGWLGMPLAMSLSARGWQVTGSKTTQDGVEAARMSGIDSYLLRMEPELVCDSDDLDALMDADALVITLPARRSGPGDEFYLQAVQELVDSALAHRIPRIIFTSSTSVYGDAQGTVKETTPRNPVTNSGRVLEELEDWLHNLPGTSVDILRLAGLVGPGRHPGRFFAGKTAPDGEHGVNLVHLEDVIGAITLLLQAPKGGHIYNICAPAHPARNVFYPQMARLLGLEPPQFRNSLDSGKGKIIDGSRICNELGFEYQYPDPLVMPLE [P0AD12] ; measured total protein half-life in vivo: 8.76

Lookup result for MSNTPIELKGSSFTLSVVHLHEAEPKVIHQALEDKIAQAPAFLKHAPVVLNVSALEDPVNWSAMHKAVSATGLRVIGVSGCKDAQLKAEIEKMGLPILTEGKEKAPRPAPTPQAPAQNTTPVTKTRLIDTPVRSGQRIYAPQCDLIVTSHVSAGAELIADGNIHVYGMMRGRALAGASGDRETQIFCTNLMAELVSIAGEYWLSDQIPAEFYGKAARLQLVENALTVQPLN ; measured total protein half-life in vivo: 9.85

Lookup result for MKLVGSYTSPFVRKLSILLLEKGITFEFINELPYNADNGVAQFNPLGKVPVLVTEEGECWFDSPIIAEYIELMNVAPAMLPRDPLESLRVRKIEALADGIMDAGLVSVREQARPAAQQSEDELLRQREKINRSLDVLEGYLVDGTLKTDTVNLATIAIACAVGYLNFRRVAPGWCVDRPHLVKLVENLFSRESFARTEPPKA [P0ACA1] ; measured total protein half-life in vivo: 10.7

Lookup result for MDMDLNNRLTEDETLEQAYDIFLELAADNLDPADVLLFNLQFEERGGAELFDPAEDWQEHVDFDLNPDFFAEVVIGLADSEDGEINDVFARILLCREKDHKLCHIIWRE [P0A8L7] ; measured total protein half-life in vivo: 8.89

Lookup result for MKYDLIIIGSGSVGAAAGYYATRAGLNVLMTDAHMPPHQHGSHHGDTRLIRHAYGEGEKYVPLVLRAQTLWDELSRHNEEDPIFVRSGVINLGPADSTFLANVAHSAEQWQLNVEKLDAQGIMARWPEIRVPDNYIGLFETDSGFLRSELAIKTWIQLAKEAGCAQLFNCPVTAIRHDDDGVTIETADGEYQAKKAIVCAGTWVKDLLPELPVQPVRKVFAWYQADGRYSVKNKFPAFTGELPNGDQYYGFPAENDALKIGKHNGGQVIHSADERVPFAEVASDGSEAFPFLRNVLPGIGCCLYGAACTYDNSPDEDFIIDTLPGHDNTLLITGLSGHGFKFASVLGEIAADFAQDKKSDFDLTPFRLSRFQ ; measured total protein half-life in vivo: 6.92
